- Method Notes: Single dose PK, phase 1, healthy European men
- Type: in vivo, human
- Assay Setup: male, human, plasma, single SC 0.01 mg, geometric mean
Where a SMILES comes first, the peptide text is derived from it. [ ]: non-standard residue; d: D form. Arg(Me) = CNC(=N)NCCC[C@H](N)C(=O)O; Hyp = O=C(O)[C@@H]1C[C@@H](O)CN1; azaGly = NNC(=O)O
Measurement Label: Cmax (ng/mL)
Report only the number, with the unit ng/mL understood.

Determine from records and report Cmax for CC(=O)O.CNC(=N)NCCC[C@H](NC(=O)[C@H](CC(C)C)NC(=O)NNC(=O)[C@H](Cc1ccccc1)NC(=O)[C@@H](NC(=O)[C@H](CC(N)=O)NC(=O)[C@@H]1C[C@@H](O)CN1C(=O)[C@@H](Cc1ccc(O)cc1)NC(C)=O)[C@@H](C)O)C(=O)N[C@@H](Cc1c[nH]c2ccccc12)C(N)=O [API-MA] (Ac-[dY][Hyp]NTF[azaGly]L[Arg(Me)]W-NH2)
0.14
